System: SiHa
Assay: MTT antiproliferative assay
Assay type: cell-based, human
Conditions: Homo sapiens; SiHa, MTT, 72 h; read-out: IC50 Value (μM) ± SEM
recorded-endpoint: IC50 (µM)

smiles=CC[C@]12C=CCN3CC[C@@]4(c5ccc(OC)cc5N(C)[C@H]4[C@@](O)(C(=O)OC)[C@@H]1OC(=O)CCC[P+](c1ccccc1)(c1ccccc1)c1ccccn1)[C@@H]32 recorded_endpoint=IC50 numeric_value=2.42

* * *

System: COLO 205
Assay: NCI60 five-dose screen
Assay type: cell-based
Details: Homo sapiens, COLO 205
recorded-endpoint: GI50 (nM)

compound="CC[C@]12C=CCN3CC[C@@]4(c5ccc(OC)cc5N(C)[C@H]4[C@@](O)(C(=O)OC)[C@@H]1OC(=O)CCC[P+](c1ccc(F)cc1)(c1ccc(F)cc1)c1ccc(F)cc1)[C@@H]32 [9c]" numeric_value=4980
compound="CC[C@]12C=CCN3CC[C@@]4(c5ccc(OC)cc5N(C)[C@H]4[C@@](O)(C(=O)OC)[C@@H]1OC(=O)CCC[P+](c1ccccc1)(c1ccccc1)c1ccccc1OC)[C@@H]32 [9f]" numeric_value=179
compound="CC[C@]12C=CCN3CC[C@@]4(c5ccc(OC)cc5N(C)[C@H]4[C@@](O)(C(=O)OC)[C@@H]1OC(=O)CCCC[P+](c1ccc(OC)cc1)(c1ccc(OC)cc1)c1ccc(OC)cc1)[C@@H]32 [10b]" numeric_value=214
compound="CC[C@]12C=CCN3CC[C@@]4(c5ccc(OC)cc5N(C)[C@H]4[C@@](O)(C(=O)OC)[C@@H]1OC(=O)CCC[P+](C1CCCCC1)(C1CCCCC1)C1CCCCC1)[C@@H]32 [9d]" numeric_value=430
compound="CC[C@]12C=CCN3CC[C@@]4(c5ccc(OC)cc5N(C)[C@H]4[C@@](O)(C(=O)OC)[C@@H]1OC(=O)CCCC[P+](c1ccccc1)(c1ccccc1)c1ccccc1)[C@@H]32 [compound 4, reference compound]" numeric_value=242

* * *

Tested on: MALME-3M
Assay: NCI60 one-dose screen
Format: cell-based
Settings: Homo sapiens, Malme-3M, read-out: Growth percent
recorded-endpoint: activity at 10 µM

compound="CC[C@]12C=CCN3CC[C@@]4(c5ccc(OC)cc5N(C)[C@H]4[C@@](O)(C(=O)OC)[C@@H]1OC(=O)CCCC[P+](c1ccc(OC)cc1)(c1ccc(OC)cc1)c1ccc(OC)cc1)[C@@H]32 [10b]" result=-97.2%
compound=CC[C@]12C=CCN3CC[C@@]4(c5ccc(OC)cc5N(C)[C@H]4[C@@](O)(C(=O)OC)[C@@H]1OC(=O)CCC[P+](c1ccc(F)cc1)(c1ccc(F)cc1)c1ccc(F)cc1)[C@@H]32 result=-32.6%
compound=CC[C@]12C=CCN3CC[C@@]4(c5ccc(OC)cc5N(C)[C@H]4[C@@](O)(C(=O)OC)[C@@H]1OC(=O)CCC[P+](c1ccccc1)(c1ccccc1)c1ccccc1OC)[C@@H]32 result=-96.7%
compound="CC[C@]12C=CCN3CC[C@@]4(c5ccc(OC)cc5N(C)[C@H]4[C@@](O)(C(=O)OC)[C@@H]1OC(=O)CCCC[P+](C1CCCCC1)(C1CCCCC1)C1CCCCC1)[C@@H]32 [10d]" result=-95.9%
compound="CC[C@]12C=CCN3CC[C@@]4(c5ccc(OC)cc5N(C)[C@H]4[C@@](O)(C(=O)OC)[C@@H]1OC(=O)CCCC[P+](c1ccccc1)(c1ccccc1)c1ccccc1)[C@@H]32 [compound 4, reference compound]" result=-35.8%
